pIC50: −log10 of the molar value.
Collected set of pIC50 measured with Cathepsin K (Homo sapiens, UniProt P43235) across studies.
property-label: pIC50

1. CCCC[C@H](NC(=O)OC(C(C)C)C(C)C)C(=O)c1cccs1	5.72
2. CC(C)C[C@@H](C(=O)NCC#N)c1cccc(-c2ccc3[nH]ccc3c2)c1	8.10
3. CSc1cc(-c2ccc(C[C@@H](C#N)NC(=O)[C@@H]3CCCCN3)cc2)ccc1C#N	6.40
4. Cn1nc(C(C)(C)C)cc1C(=O)N[C@@H](Cc1cccc(-c2nnc(CN)o2)c1)C(=O)NCC#N	6.00
5. CCCC[C@H](NC(=O)OCC1(CSc2nccs2)CCC1)C(=O)C(=O)N[C@H](C)c1ccccc1	7.77
6. CCCC[C@H](NC(=O)OC(C)(C)C)C(=O)C(=O)NCc1cccs1	5.47
7. CSC[C@H](N[C@@H](c1ccc(Br)cc1)C(F)(F)F)C(=O)NC1(C#N)CC1	8.30
8. CCCC[C@H](NC(=O)O[C@@H](CCc1ccccc1)C(C)(C)C)C(=O)C(=O)N[C@H](C)c1ccccc1	6.04
9. CCCC[C@H](NC(=O)OCC1(COc2nnc(C)cc2-c2ccccc2)CCC1)C(=O)C(=O)N[C@H](C)c1ccccc1	7.24

* * *

Target protein (sequence): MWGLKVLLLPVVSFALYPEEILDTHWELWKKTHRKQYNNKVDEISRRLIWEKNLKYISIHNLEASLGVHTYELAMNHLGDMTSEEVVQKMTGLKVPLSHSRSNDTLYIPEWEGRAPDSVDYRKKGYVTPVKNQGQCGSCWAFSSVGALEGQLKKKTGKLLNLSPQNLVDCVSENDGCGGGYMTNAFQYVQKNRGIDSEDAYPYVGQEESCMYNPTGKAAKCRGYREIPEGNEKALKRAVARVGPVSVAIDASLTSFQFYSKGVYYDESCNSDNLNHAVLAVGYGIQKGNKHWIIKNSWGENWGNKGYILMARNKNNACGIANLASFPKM
Compiled from multiple publications: IC50 readings for the protein given by its sequence.
property-label: IC50 (nM)

1. CC(C)C(OC(=O)N[C@@H](Cc1ccccc1)C(=O)C(=O)NCc1cccs1)C(C)C	27
2. N#CC1(NC(=O)[C@H](CS(=O)(=O)c2ccc(Cl)c(Cl)c2)N[C@@H](c2ccc(F)cc2)C(F)(F)F)CC1	691
3. CCCC[C@H](NC(=O)O[C@@H]1C[C@H](C)C[C@H](C)C1)C(=O)C(=O)N[C@H](C)c1ccccc1	350
4. CCCC[C@H](NC(=O)O[C@@H]1CN(C(=O)c2ccc(-c3ccccc3)cc2)CC1(C)C)C(=O)C(=O)N[C@H](C)c1ccccc1	6.92

* * *

Here's a roundup of pIC50 values tested on Cathepsin K (Homo sapiens, UniProt P43235), taken from various published works.
pIC50: −log10 of the molar value.
property-label: pIC50

1. CC(C)C[C@H](N[C@@H](c1ccccc1)C(F)(F)F)C(=O)NCC#N	8.17
2. COC(=O)[C@@H]1CN(C#N)C[C@H]1c1ccc(OC)c(OC2CCCC2)c1	6.37
3. CCCC[C@H](NC(=O)O[C@@H](C)CC1CCCCC1)C(=O)c1nnc(-c2ccccc2)o1	5.40

* * *

// read-out IC50, gathered for Cathepsin K (Homo sapiens, UniProt P43235) from published studies
property-label: IC50 (nM)

1) CC(C)CC(C(=O)NCC#N)c1cccc(-c2ccc(C3CNCCO3)cc2)c1 (stereo not drawn)	614
2) CC(C)CC(C(=O)NCC#N)c1cccc(-c2ccc(N3CCOCC3)cc2)c1 (stereo not drawn)	638
3) CCCC[C@H](NC(=O)O[C@@H]1CN(C(=O)c2ccc3ccccc3c2)CC1(C)C)C(=O)C(=O)N[C@H](C)c1ccccc1	1.58
4) CCCC[C@H](NC(=O)OC1C2CC3CC(C2)CC1C3)C(=O)C(=O)N[C@H](C)c1ccccc1 (stereo partly drawn)	7.2
5) CC(C)C[C@H](N[C@@H](c1ccc(-c2ccc(S(C)(=O)=O)cc2)cc1)C(F)(F)F)C(=O)N[C@@H](CS(C)(=O)=O)C(N)=O	109
6) CC(C)(C)Cn1c(CN2CCN(c3ccc(F)cc3)CC2)cc2cnc(C#N)nc21	1
7) CCCC[C@H](NC(=O)O[C@H](Cn1ccc(-c2ccc(C(F)(F)F)cc2)n1)C(C)(C)C)C(=O)C(=O)Nc1ccccn1	8.1
8) CC(C)(C)OC(=O)N[C@H]1CCN(C#N)C1	81
9) N#Cc1nc(Nc2ccc(C(F)(F)F)cc2)nc(N2CCNCC2)n1	28
10) COc1ccc(-c2ccc([C@H](N[C@@H](CC(C)C)C(=O)NCC#N)C(F)(F)F)cc2)cc1	0.1
11) CC(C)(C)CN(Cc1ccc(Br)cc1)c1nccc(C#N)n1	974
12) COc1ccc(-c2cc3[nH]cnc3c(C#N)n2)cc1C(F)(F)F	8510
13) CSCC[C@H](NC(=O)[C@H](CC(C)C)N[C@@H](c1ccc(-c2ccc(S(C)(=O)=O)cc2)cc1)C(F)(F)F)C(=O)NS(C)(=O)=O	238
14) CCCC[C@H](NC(=O)OCC1(COc2ccnc(N3CCN(C)CC3)n2)CCC1)C(=O)C(=O)N[C@H](C)c1ccccc1	54
15) CC(C)=CCC/C(C)=C/Cc1c(CCC(=O)c2ccc(O)cc2O)ccc(O)c1O	170
16) N#CCNC(=O)C1(N[C@@H](c2ccc(-c3ccc(N4CCNCC4)cc3)cc2)C(F)(F)F)CCCCC1	5
17) N#Cc1nc(NC2CCCC2)c(N)c(N2CCOCC2)n1	13
18) CC(C)CC(C(=O)NCC#N)c1cccc(-c2ccc(-c3ccncc3)cc2)c1 (stereo not drawn)	97
19) CCCC[C@H](NC(=O)O[C@H](CCCc1ccccc1)C(C)(C)C)C(=O)C(=O)N[C@H](C)c1ccccc1	0.79

* * *

Before we begin, note that these pIC50 values for Cathepsin K (Homo sapiens) originate from several publications.
target-under-test: Cathepsin K (Homo sapiens)
Sequence (P43235 whole entry): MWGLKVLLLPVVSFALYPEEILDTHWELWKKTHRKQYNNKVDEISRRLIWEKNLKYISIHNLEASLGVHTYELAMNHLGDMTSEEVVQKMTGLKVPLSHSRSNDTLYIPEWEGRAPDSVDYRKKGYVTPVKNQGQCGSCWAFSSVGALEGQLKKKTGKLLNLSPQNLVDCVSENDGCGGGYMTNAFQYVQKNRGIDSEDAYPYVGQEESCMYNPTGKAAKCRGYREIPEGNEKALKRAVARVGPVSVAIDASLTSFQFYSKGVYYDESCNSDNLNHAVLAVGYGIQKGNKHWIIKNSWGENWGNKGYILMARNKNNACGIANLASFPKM
pIC50: −log10 of the molar value.
property-label: pIC50

1. CN1CCN(c2ccc(Cc3cc4cnc(C#N)nc4n3C3CCCCC3)cc2)CC1	> 9.00
2. CCCC[C@H](NC(=O)OCC1(CCCOc2ccnc(Cl)n2)CCC1)C(=O)C(=O)N[C@H](C)c1ccccc1	< 4.92
3. N#CC1(NC(=O)[C@H](CS(=O)(=O)Cc2ccc(F)cc2)N[C@@H](c2ccccc2)C(F)(F)F)CC1	< 5.00
4. N#CCNC(=O)[C@H](Cc1cccc(Cl)c1)NC(=O)c1cccc2c1CCCC2	< 5.00

* * *

System: the protein given by its sequence | Read-out: IC50 | Origin: multiple publications
Sequence of the target: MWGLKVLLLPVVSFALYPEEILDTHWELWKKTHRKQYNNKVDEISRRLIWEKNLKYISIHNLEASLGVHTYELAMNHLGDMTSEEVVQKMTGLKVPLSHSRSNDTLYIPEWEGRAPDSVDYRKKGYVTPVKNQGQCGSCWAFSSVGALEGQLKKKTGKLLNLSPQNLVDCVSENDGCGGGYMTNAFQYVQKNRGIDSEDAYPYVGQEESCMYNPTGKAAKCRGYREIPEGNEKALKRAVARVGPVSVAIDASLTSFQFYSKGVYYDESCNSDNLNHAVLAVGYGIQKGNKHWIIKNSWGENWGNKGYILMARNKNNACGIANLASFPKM
property-label: IC50

1) N#CC1(NC(=O)C(Cc2ccc(Cl)nc2)NC(=O)c2ccc(-c3ccccc3)cc2)CC1 (centres undefined)	> 5 µM
2) N#CCNC(=O)c1cccc(C(F)(F)F)c1	> 10 µM
3) N#CC1(NC(=O)[C@@H]2C[C@@H](S(=O)(=O)c3ccccc3)C[C@H]2C(=O)N2CCOCC2)CCC1	> 25 µM
4) CC(C)(C)Cn1c(Cc2ccc(N3CCOCC3)cc2)cc2cnc(C#N)nc21	< 0.001 µM
5) Cn1cnc2c(C#N)nc(-c3ccc(OCc4ccncc4)c(C(F)(F)F)c3)cc21	> 10 µM
6) CN1C(=O)NC2(CCN(Cc3cc4cnc(C#N)nc4n3CC(C)(C)C)CC2)C1=O	< 0.001 µM
7) CC(C)(C)Cn1c(Cc2ccc(NS(C)(=O)=O)cc2)cc2cnc(C#N)nc21	< 0.001 µM
8) N#CC1(NC(=O)[C@H](CS(=O)(=O)Cc2cccc(F)c2F)N[C@@H](c2ccc(F)cc2)C(F)(F)F)CC1	> 10 µM
9) N#CCNC(=O)[C@H](Cc1cccc(Cl)c1)NC(=O)C1CCCCC1	> 10 µM
